Below: a set of entries, each annotated with reported TGI.
Test system: RPMI-8226 leukemia
assay_notes: NCI tumour cell line growth inhibition, 48 h
Where a SMILES comes first, the peptide text is derived from it. The star is where a group is joined. Cbz = O=C(OCc1ccccc1)*; CH2Cl = ClC*

{"compound": "N#CC(C(=O)C(=O)C(C#N)c1ccc(Br)cc1)c1ccc(Br)cc1 (centres undefined)", "TGI": "> 100 µM"}
{"compound": "CC(C)CC(NC(=O)OCc1ccccc1)C(=O)NC(Cc1ccccc1)C(=O)CCl (stereo not drawn) (Cbz-Leu-Phe-CH2Cl; configuration not given here)", "TGI": "5.15 µM"}
{"compound": "Cc1ccc(NC(=O)CC2CC2)cc1-c1ccc(C(=O)NCC2CC2)cc1", "TGI": "> 25 µM"}
{"compound": "CC(C)=CC[C@]12CCN[C@H]1N(S(=O)(=O)c1ccccc1)c1ccccc12", "TGI": "45.9 µM"}

---

Tested on: M14 melanoma
assay_notes: NCI tumour cell line growth inhibition, 48 h
Below: a set of entries, each annotated with reported TGI.
property_measured: TGI (µM)

{"compound": "CCC[CH2][Sn]([Cl])([CH2]CCC)[CH2]CCC", "property_measured": "TGI", "uom": "µM", "relation_symbol": "=", "obs_value": 0.308}
{"compound": "O=c1ccn([C@H]2CSC[C@@H](CO)C2)c(=O)[nH]1", "property_measured": "TGI", "uom": "µM", "relation_symbol": ">", "obs_value": 100}
{"compound": "O=C1OCC2=C1C(c1cccc(Br)c1)c1cc3c(cc1N2CCO)CCC3 (stereo unspecified)", "property_measured": "TGI", "uom": "µM", "relation_symbol": "=", "obs_value": 5.78}
{"compound": "C1=CC(N(c2ccccc2)C2C=CCCC2)CCC1 (stereo unspecified)", "property_measured": "TGI", "uom": "µM", "relation_symbol": ">", "obs_value": 100}
{"compound": "CN1CCOC(c2ccccc2)O1 (stereo unspecified)", "property_measured": "TGI", "uom": "µM", "relation_symbol": ">", "obs_value": 100}
{"compound": "CCCCCCc1cc2cc(C(=O)Nc3ccccc3)c(=N)oc2cc1O", "property_measured": "TGI", "uom": "µM", "relation_symbol": ">", "obs_value": 29.4}
{"compound": "NCCNc1c2c(c(NCCN)c3[nH]ccc13)C(=O)c1ccccc1C2=O", "property_measured": "TGI", "uom": "µM", "relation_symbol": "=", "obs_value": 2.76}
{"compound": "CCCc1nc(NC#N)nc(C(=O)Nc2ccccc2)c1CC", "property_measured": "TGI", "uom": "µM", "relation_symbol": ">", "obs_value": 100}
{"compound": "CC(=O)c1[nH]c(NCc2ccccc2)c(C(=S)Nc2ccccc2)c1N", "property_measured": "TGI", "uom": "µM", "relation_symbol": "=", "obs_value": 33.7}
{"compound": "S=c1sc2c(Cl)nc(Cl)nc2n1-c1ccccc1", "property_measured": "TGI", "uom": "µM", "relation_symbol": "=", "obs_value": 43}
{"compound": "C=CCCCCOc1ccccc1-c1cnc(OCCCCC=C)n1C", "property_measured": "TGI", "uom": "µM", "relation_symbol": "=", "obs_value": 14.6}
{"compound": "COC(CNC(=O)C(C)NC(=O)/C=C/c1ccccc1)OC (stereo unspecified)", "property_measured": "TGI", "uom": "µM", "relation_symbol": ">", "obs_value": 100}
{"compound": "CCCCCCOC(=O)/C=C/[C@]1(CO)C/C(=C/CC(C(C)C)C(C)C)C(=O)O1", "property_measured": "TGI", "uom": "µM", "relation_symbol": "=", "obs_value": 25.1}
{"compound": "Cc1cc(N(CCC#N)CCC#N)ccc1N=Nc1ccc(C(=O)O)cc1", "property_measured": "TGI", "uom": "µM", "relation_symbol": ">", "obs_value": 100}
{"compound": "Cn1ccc(C(=O)NCCN(CCNC(=O)c2ccn(C)c(=O)c2O)CCNC(=O)c2cccc(=O)n2O)c(O)c1=O", "property_measured": "TGI", "uom": "µM", "relation_symbol": ">", "obs_value": 100}
{"compound": "Cc1c2c(C#N)nccc2c(C)c2c1c1ccccc1n2Cc1ccccc1", "property_measured": "TGI", "uom": "µM", "relation_symbol": ">", "obs_value": 100}
